- System name: folate receptor (FR) (Homo sapiens, UniProt P15328)
- Construct: endogenous in cells
- Sequence (P15328 25-257): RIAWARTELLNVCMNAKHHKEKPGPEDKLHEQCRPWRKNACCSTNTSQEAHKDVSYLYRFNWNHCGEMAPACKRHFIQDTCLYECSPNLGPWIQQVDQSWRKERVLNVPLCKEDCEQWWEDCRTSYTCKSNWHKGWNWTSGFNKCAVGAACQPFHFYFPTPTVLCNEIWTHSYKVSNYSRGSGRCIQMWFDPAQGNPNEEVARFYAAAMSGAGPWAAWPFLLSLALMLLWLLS
- Test details: Displacement assay using KB cells and [^3H]folic acid
- Settings: Cheng-Prusoff equation with Kd ([^3H]folic acid) = 1.0 nM
Quantity: Ki (nM)
Provide only the numeric value, understood in nM.

Noted for Nc1nc2ncc(CNc3ccc(C(=O)NC(CCC(=O)NCCOCCOCCOCCn4cc(CNC(CF)C(=O)O)nn4)C(=O)O)cc3)nc2c(=O)[nH]1 (stereo not shown) [^19F-Ala-folate] : its Ki reads 5.5

---

- System name: folate receptor (FR) (Homo sapiens, UniProt P15328)
- Construct: endogenous in cells
- Test details: Displacement assay using KB cells and [^3H]folic acid
- Settings: KB-cells, [^3H]folic acid
Quantity: pIC50
# reply with the number alone; pIC50 is -log10 of concentration in mol/L

Noted for Nc1nc2ncc(CNc3ccc(C(=O)NC(CCC(=O)NCCOCCOCCOCCn4cc(CNC(CF)C(=O)O)nn4)C(=O)O)cc3)nc2c(=O)[nH]1 (stereo not shown) [^19F-Ala-folate] : its pIC50 reads 8.19

The reported measurements were obtained from paper PMC5874726.
